# Test system: K4 kissing-loop RNA reporter;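 note: bound reporter read as fluorescence of individual clusters on recovered sequencing chips by microscopy, with normalized cluster intensities fitted with a binding model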
# measurement.notes: apparent KD of K4 kissing-loop reporter; higher = weaker reporter binding
# particulars: Eterna round: R107; input ligand: theophylline 20 uM
Measured apparent KD of K4 kissing-loop reporter values are reported for all entries that follow.
Answer with a number only, understood to be in nM.

GGUUCUGGAAUCGAGUGAUGUUCGGUGUUGCAGGAUAUAGAGAGAUCUAGAAGGGCAGUUUGUAUUUUAUUGAGUGAUUUUCUUU [Last Minute #3] | 106

UAAUAUAAUCUGUCGUAAACAAUAAUUAGUCAGGAUAUCGUAUAUUCGAGAAGGGACACUAUCUAGUGAUGUUAGAUAUUUCGUU [JR_SSFMNA_Sub026] has a reported apparent KD of K4 kissing-loop reporter of 67.5

So for GAGAGCUCUGGAGGAUAUGAGUCUAGUGAUGUUAGGCGGUCCAUGCGCGUGGCGCGUUAUGCCCUUUUAGAAGGCCAGAGCUCUC [#2 Exclusion - FMN B Attempt #19 (HarryS)] , the logged apparent KD of K4 kissing-loop reporter turned out to be 113

---

# System: MS2 coat protein
# measurement.notes: apparent KD of MS2 coat protein; designed switch direction (-1 OFF switch, 1 ON switch): -1; higher = weaker reporter binding
# particulars: input ligand: FMN 200 uM
readout.type: apparent KD of MS2 coat protein (nM)
Expressed in nM, but write only the number.

Measured apparent KD of MS2 coat protein (MS2 coat protein), entry ACCUCACAUGAGGAUCACCCAUGUCAGGAUAUCUUUUAAAACACCAAUCGUGUCGCUGAGAGAAGGGACAUUAA [EX1 #23] (Eterna round: R97, puzzle: Exclusion 1) : 20.5

Reading of apparent KD of MS2 coat protein for UUCUGGACAGGAUAUGUACUUGAGCACUUGAGGAUCACCCAAGUCUUCAAGUACUCAGGCACAGAAGGGUUAAUUU [jl-ex5.4.66 ViennaUCT mod] (Eterna round: R97, puzzle: Exclusion 5) with MS2 coat protein: 58.9

Log: MS2 coat protein, sequence GAUUUACAUGAGGAUCACCCAUGUGAGGAUAUAUUGUUAUUUUUAAUAUUUUUUAGUGGUAGAAGGCGCGUGAU [JR_Exc1_Sub016] (Eterna round: R97, puzzle: Exclusion 1) , apparent KD of MS2 coat protein = 24.2

---

# Test system: MS2 coat protein
# measurement.notes: apparent KD of MS2 coat protein; designed switch direction (-1 OFF switch, 1 ON switch): 1; higher = weaker reporter binding
# particulars: Eterna round: R95; input ligand: microRNA oligo, concentration not stated
readout.type: apparent KD of MS2 coat protein (nM)
Answer format: numeric, nM implied, no suffix.

UACCAACAUAUAGAACAAGCGUGCUCGUCACAUGAGGAUCACCCAUGUCUAAACGCUGUACCUACAUCCUCAGCGCC [Eddiso] (puzzle: Sensor for hsa-mir-208a) | 24.6

# apparent KD of MS2 coat protein of GUAAUACAUGAGGAUCACCCAUGUCAAUGUAGUCGAGGAUAUGGGUAGCUAUGAGGCUUACUAGAAGGCGACGAGC [Same State 1 - Mod of Vinnie Teenbexe v.5] (puzzle: Same State 1) = 176

The sequence listed as GGCAUGCGGCGUACCGUAUGCUGGUAUGUACAUGAGGAUCACCCAUGUCAUGUACAGGCUUUUUGCUCGUCUUAUUG [JL-shm-2.40 JL mod] (puzzle: Sensor for hsa-mir-208a) shows apparent KD of MS2 coat protein equal to 28.7

So, CGUAGGUAGCUGGAGGAUAUUCGAGUGGUAACAUGAGGAUCACCCAUGUGGAGAGAGGUACAUGAGGAGAAGGCUAGCUGCCUGC [JL-ss2-3.14 JL mod] (puzzle: Same State 2) ? Its apparent KD of MS2 coat protein was 22

sequence AAAAUACAUGAGGAUCACCCAUGUCUAAAGAACGGAGGAUAUAGGCGUGCAAAACACGCACUAGAAGGCUGGGUGC [Eserus] (puzzle: Same State 1) , apparent KD of MS2 coat protein observed: 92.3
